B1: Osa-1-4 twister ribozyme (parent)
chain: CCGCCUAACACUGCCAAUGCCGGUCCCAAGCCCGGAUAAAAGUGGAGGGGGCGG

# Variants of: B1
# Assay comment: self-cleavage, relative activity (ratio to wild type); higher = more cleavage; co-transcriptional
Can you tell me self-cleavage for the items I'm about to list?
Just the number, please.

-- ask Which value of self-cleavage has been reported for A36C G53C in the records?
-- reply 0.06

-- ask Which value of self-cleavage has been reported for C11A C32U in the records?
-- reply 0.06

-- ask Which value of self-cleavage has been reported for G19C G54A in the records?
-- reply 0.11

-- ask Which value of self-cleavage has been reported for C52U U12C in the records?
-- reply 0.65

-- ask Which value of self-cleavage has been reported for C11G C9A in the records?
-- reply 0.09

-- ask Which value of self-cleavage has been reported for C26A G30C in the records?
-- reply 0.02

-- ask Which value of self-cleavage has been reported for A40C U12A in the records?
-- reply 0.5

-- ask Which value of self-cleavage has been reported for A16U C11G in the records?
-- reply 0.55

-- ask Which value of self-cleavage has been reported for A17G A46G in the records?
-- reply 0.07

-- ask Which value of self-cleavage has been reported for A41U A7G in the records?
-- reply 0.31

-- ask Which value of self-cleavage has been reported for G49C U37A in the records?
-- reply 0.05

-- ask Which value of self-cleavage has been reported for C31U C32U in the records?
-- reply 0.09

-- ask Which value of self-cleavage has been reported for A17G A36C in the records?
-- reply 0.82

-- ask Which value of self-cleavage has been reported for A36G C15U in the records?
-- reply 0.89

-- ask Which value of self-cleavage has been reported for A28G C21A in the records?
-- reply 0.07

-- ask Which value of self-cleavage has been reported for C21A G49C in the records?
-- reply 0.05

-- ask Which value of self-cleavage has been reported for G42A G49A in the records?
-- reply 0.07

-- ask Which value of self-cleavage has been reported for A8G G44A in the records?
-- reply 0.39

-- ask Which value of self-cleavage has been reported for A8C U24C in the records?
-- reply 0.08

-- ask Which value of self-cleavage has been reported for C21G G45C in the records?
-- reply 0.02

-- ask Which value of self-cleavage has been reported for A10C C31G in the records?
-- reply 0.03

-- ask Which value of self-cleavage has been reported for A16U U12C in the records?
-- reply 0.47

-- ask Which value of self-cleavage has been reported for G22U G51A in the records?
-- reply 0.1

-- ask Which value of self-cleavage has been reported for C27A U37A in the records?
-- reply 0.26

-- ask Which value of self-cleavage has been reported for A38G C27G in the records?
-- reply 0.09

-- ask Which value of self-cleavage has been reported for A16C C21U in the records?
-- reply 0.93

-- ask Which value of self-cleavage has been reported for A39G C9A in the records?
-- reply 0.39

-- ask Which value of self-cleavage has been reported for G44U G49A in the records?
-- reply 0.12

-- ask Which value of self-cleavage has been reported for A8C C21G in the records?
-- reply 0.05

-- ask Which value of self-cleavage has been reported for A38G C32A in the records?
-- reply 0.09

-- ask Which value of self-cleavage has been reported for A46C G30C in the records?
-- reply 0.02

-- ask Which value of self-cleavage has been reported for C9U G54U in the records?
-- reply 0.72

-- ask Which value of self-cleavage has been reported for C14U C33U in the records?
-- reply 0.08

-- ask Which value of self-cleavage has been reported for C27G U37C in the records?
-- reply 0.1

-- ask Which value of self-cleavage has been reported for C15U G19A in the records?
-- reply 1.03

-- ask Which value of self-cleavage has been reported for A10C G35U in the records?
-- reply 0.04

-- ask Which value of self-cleavage has been reported for G22A U12G in the records?
-- reply 0.08

-- ask Which value of self-cleavage has been reported for C27A U43A in the records?
-- reply 0.1

-- ask Which value of self-cleavage has been reported for A39G C27G in the records?
-- reply 0.07

-- ask Which value of self-cleavage has been reported for C11U G51U in the records?
-- reply 0.12

-- ask Which value of self-cleavage has been reported for A40G G54A in the records?
-- reply 0.3

-- ask Which value of self-cleavage has been reported for C33A U18A in the records?
-- reply 0.15

-- ask Which value of self-cleavage has been reported for A16U C9G in the records?
-- reply 0.91

-- ask Which value of self-cleavage has been reported for C14U G48A in the records?
-- reply 0.05

-- ask Which value of self-cleavage has been reported for G44U G54C in the records?
-- reply 0.92

-- ask Which value of self-cleavage has been reported for A46C C33U in the records?
-- reply 0.03

-- ask Which value of self-cleavage has been reported for C33G G48U in the records?
-- reply 0.02

-- ask Which value of self-cleavage has been reported for C11A C27U in the records?
-- reply 0.08

-- ask Which value of self-cleavage has been reported for A29C G49C in the records?
-- reply 0.01

-- ask Which value of self-cleavage has been reported for A29C G45A in the records?
-- reply 0.02

-- ask Which value of self-cleavage has been reported for C14G U43A in the records?
-- reply 0.09

-- ask Which value of self-cleavage has been reported for A40U C26A in the records?
-- reply 0.05

-- ask Which value of self-cleavage has been reported for A29U G30U in the records?
-- reply 0.03

-- ask Which value of self-cleavage has been reported for U24A U37G in the records?
-- reply 0.49

-- ask Which value of self-cleavage has been reported for A8C C33U in the records?
-- reply 0.06

-- ask Which value of self-cleavage has been reported for A17G G51A in the records?
-- reply 0.44

-- ask Which value of self-cleavage has been reported for C20A C33G in the records?
-- reply 0.05

-- ask Which value of self-cleavage has been reported for A38G C27A in the records?
-- reply 0.16

-- ask Which value of self-cleavage has been reported for A39G C14G in the records?
-- reply 0.12

-- ask Which value of self-cleavage has been reported for A39G C21A in the records?
-- reply 0.55

-- ask Which value of self-cleavage has been reported for C15U C32A in the records?
-- reply 0.03

-- ask Which value of self-cleavage has been reported for A16C A46G in the records?
-- reply 0.06

-- ask Which value of self-cleavage has been reported for C32G U24A in the records?
-- reply 0.06

-- ask Which value of self-cleavage has been reported for C25G G44C in the records?
-- reply 0.06

-- ask Which value of self-cleavage has been reported for U12G U18G in the records?
-- reply 0.59

-- ask Which value of self-cleavage has been reported for G45C G51U in the records?
-- reply 0.05

-- ask Which value of self-cleavage has been reported for C25G G13U in the records?
-- reply 0.01

-- ask Which value of self-cleavage has been reported for A7U C21A in the records?
-- reply 0.08

-- ask Which value of self-cleavage has been reported for A36G G54U in the records?
-- reply 0.98

-- ask Which value of self-cleavage has been reported for C27G C31G in the records?
-- reply 0.06

-- ask Which value of self-cleavage has been reported for A29C C32A in the records?
-- reply 0.03

-- ask Which value of self-cleavage has been reported for G54A U37C in the records?
-- reply 0.98

-- ask Which value of self-cleavage has been reported for A10C C32A in the records?
-- reply 0.02

-- ask Which value of self-cleavage has been reported for C31U G48U in the records?
-- reply 0.04

-- ask Which value of self-cleavage has been reported for G13U G23A in the records?
-- reply 0.02

-- ask Which value of self-cleavage has been reported for A10U U37A in the records?
-- reply 0.04

-- ask Which value of self-cleavage has been reported for A8G G45C in the records?
-- reply 0.05

-- ask Which value of self-cleavage has been reported for G53A U12A in the records?
-- reply 0.28

-- ask Which value of self-cleavage has been reported for A28C C20U in the records?
-- reply 1.01

-- ask Which value of self-cleavage has been reported for A17C A38G in the records?
-- reply 0.78

-- ask Which value of self-cleavage has been reported for C27A G23U in the records?
-- reply 0.04

-- ask Which value of self-cleavage has been reported for A7U G47C in the records?
-- reply 0.04

-- ask Which value of self-cleavage has been reported for A38G U24G in the records?
-- reply 0.03

-- ask Which value of self-cleavage has been reported for A7G C11G in the records?
-- reply 0.1

-- ask Which value of self-cleavage has been reported for A28G C9U in the records?
-- reply 0.11

-- ask Which value of self-cleavage has been reported for C31G in the records?
-- reply 0.11

-- ask Which value of self-cleavage has been reported for A46C G30A in the records?
-- reply 0.01

-- ask Which value of self-cleavage has been reported for G22U G45C in the records?
-- reply 0.04

-- ask Which value of self-cleavage has been reported for U24G U37A in the records?
-- reply 0.04

-- ask Which value of self-cleavage has been reported for C20G U37C in the records?
-- reply 0.19

-- ask Which value of self-cleavage has been reported for A46C C33G in the records?
-- reply 0.02
